These measurements were taken from patent US20170166558A1.

Biological target: full length human OGT (ncOGT) (Homo sapiens)
Sequence (O15294 1-1046): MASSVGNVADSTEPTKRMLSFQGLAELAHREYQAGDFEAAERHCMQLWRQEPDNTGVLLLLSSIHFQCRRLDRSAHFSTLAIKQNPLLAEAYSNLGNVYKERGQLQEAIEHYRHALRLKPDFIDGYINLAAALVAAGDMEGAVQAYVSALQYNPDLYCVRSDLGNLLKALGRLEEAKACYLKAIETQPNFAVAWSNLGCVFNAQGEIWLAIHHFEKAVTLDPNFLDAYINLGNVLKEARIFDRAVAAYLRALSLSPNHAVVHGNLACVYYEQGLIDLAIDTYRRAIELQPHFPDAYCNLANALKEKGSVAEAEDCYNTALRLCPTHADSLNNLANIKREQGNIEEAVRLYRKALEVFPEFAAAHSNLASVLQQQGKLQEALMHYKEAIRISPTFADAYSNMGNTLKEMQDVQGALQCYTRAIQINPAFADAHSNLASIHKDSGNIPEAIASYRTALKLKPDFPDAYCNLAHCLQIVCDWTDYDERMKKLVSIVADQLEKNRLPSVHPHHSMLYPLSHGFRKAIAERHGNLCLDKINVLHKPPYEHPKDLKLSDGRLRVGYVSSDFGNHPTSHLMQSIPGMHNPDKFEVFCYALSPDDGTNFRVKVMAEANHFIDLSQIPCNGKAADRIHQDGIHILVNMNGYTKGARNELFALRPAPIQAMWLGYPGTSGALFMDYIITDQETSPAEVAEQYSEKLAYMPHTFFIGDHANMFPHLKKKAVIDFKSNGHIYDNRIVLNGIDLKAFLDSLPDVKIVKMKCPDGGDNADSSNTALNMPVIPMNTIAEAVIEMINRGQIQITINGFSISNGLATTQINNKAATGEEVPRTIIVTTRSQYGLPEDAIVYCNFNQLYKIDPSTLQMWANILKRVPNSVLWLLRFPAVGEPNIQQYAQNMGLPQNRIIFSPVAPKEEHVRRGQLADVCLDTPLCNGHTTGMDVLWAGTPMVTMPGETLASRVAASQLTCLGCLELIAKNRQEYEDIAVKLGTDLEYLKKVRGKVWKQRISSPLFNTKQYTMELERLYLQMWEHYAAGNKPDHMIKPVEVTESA
pIC50: −log10 of the molar value.
Entries and their pIC50

{"columns": ["Molecule", "pIC50"],
 "data": [
  ["COc1ccccc1[C@@H](NS(=O)(=O)c1ccc2[nH]c(=O)ccc2c1)C(=O)N(Cc1ccco1)Cc1cccs1 [OSMI-1]", 5.57],
  ["CC(=O)N[C@@H]1C(OP(=O)(O)OP(=O)(O)OC[C@H]2O[C@@H](n3ccc(=O)[nH]c3=O)[C@H](O)[C@@H]2O)SC(CO)C(O)[C@@H]1O (some centres unmarked) [UDP-5SGlcNAc, reference compound]", 4.10]
]}
